tested on: A549/ATCC NSCLC; assay: NCI-60 one-dose screen, 48 h; details: 10 µM unless noted
This is part of a sample that, as a whole, favours compounds with a hit. Of some 83,000 tested, about 20% had one in any assay. Activity calls are given as the source filed them. The calls were made as follows: active = growth percent below 10; inactive = the rest.
Outcome codes: Yes (active), No (inactive)

{"compound": "CCOC(=O)c1cc(/C(=N\\O)c2cc(OC)c(OC)c(OC)c2)n2cc(C)cc(C)c12", "study_system": "A549/ATCC NSCLC", "cat": "No"}
{"compound": "CCCS(=O)(=O)c1nc(NC2CC2)cc(-c2ccc3c(ccn3C3CC(C)(C)NC(C)(C)C3)c2)n1", "study_system": "A549/ATCC NSCLC", "cat": "Yes"}
{"compound": "CC(=O)/C=C/c1cc2cc(Cl)ccc2[nH]c1=O", "study_system": "A549/ATCC NSCLC", "cat": "No"}
{"compound": "O=S(=O)(NCCNc1nccc(-c2c(-c3ccccc3)nc3sccn23)n1)c1ccc(O)cc1", "study_system": "A549/ATCC NSCLC", "cat": "No"}
{"compound": "COc1cc(OC)cc(-c2n[nH]nc2-c2ccc3c(c2)OCO3)c1", "study_system": "A549/ATCC NSCLC", "cat": "No"}
{"compound": "CC(=O)Oc1cccc(OC(C)=O)c1OC(C)=O", "study_system": "A549/ATCC NSCLC", "cat": "No"}
{"compound": "CN(C)c1nc(N)c(N=O)c(N)n1", "study_system": "A549/ATCC NSCLC", "cat": "No"}
{"compound": "Cc1ccc2nc(-c3c(CCCO)noc3N)[nH]c(=O)c2c1", "study_system": "A549/ATCC NSCLC", "cat": "No"}
{"compound": "CNC(C)=O", "study_system": "A549/ATCC NSCLC", "cat": "No"}
{"compound": "CC(C)(C)OC(=O)N[C@@H](Cc1ccccc1)C(=O)N(Cc1ccccc1)C1(C(=O)NCc2ccccc2)CCN(Cc2ccccc2)CC1", "study_system": "A549/ATCC NSCLC", "cat": "No"}
{"compound": "Nc1c(C(=O)c2ccc(F)cc2)sc2nc3c(cc12)CCCC3", "study_system": "A549/ATCC NSCLC", "cat": "No"}
{"compound": "COc1cc(NCCN=C(N)NC(N)=NC(C)C)c2ncccc2c1", "study_system": "A549/ATCC NSCLC", "cat": "No"}
{"compound": "O=C(Nc1cc(C(F)(F)F)cc(C(F)(F)F)c1)Nc1ccc(OCc2nnc(-c3ccc(Cl)cc3)o2)c(F)c1", "study_system": "A549/ATCC NSCLC", "cat": "No"}
{"compound": "COc1ccc(/C=c2\\sc3n(c2=O)C2C(NN=3)N(C)C(=O)N2C)cc1 (stereo not given)", "study_system": "A549/ATCC NSCLC", "cat": "No"}
{"compound": "NC(=O)c1ccc2c(c1)OCO2", "study_system": "A549/ATCC NSCLC", "cat": "No"}
{"compound": "Cc1nc(Nc2cccnc2)sc1C(=O)/C=C/c1ccc(F)cc1", "study_system": "A549/ATCC NSCLC", "cat": "No"}
{"compound": "COC(=O)c1ccc2nc(-c3cc4ccccc4n3C)n(CCCCOc3cc4c(cc3OC)C(=O)N3CCC[C@H]3C=N4)c2c1", "study_system": "A549/ATCC NSCLC", "cat": "Yes"}
{"compound": "Cc1ccc2nc(-c3c(N)n[nH]c3CCCO)[nH]c(=O)c2c1", "study_system": "A549/ATCC NSCLC", "cat": "No"}
{"compound": "COc1ccc(C2=CC(c3ccc(Oc4ccnc5cc(Cl)ccc45)c(OC)c3)c3c(nc(OC)[nH]c3=O)N2)cc1 (stereo not given)", "study_system": "A549/ATCC NSCLC", "cat": "No"}
{"compound": "COc1ccc(Cn2cc(COc3cc(/C=C/C(=O)c4cc(OC)c(OC)c(OC)c4)ccc3OC)nn2)cc1", "study_system": "A549/ATCC NSCLC", "cat": "No"}
{"compound": "Cc1cccc2cc(/C=C/C(=O)/C=C/c3ccc(Cl)cc3)c(=O)[nH]c12", "study_system": "A549/ATCC NSCLC", "cat": "No"}
{"compound": "COc1ccc(-c2nc3sccn3c2-c2ccnc(NCCNS(=O)(=O)c3ccc(C(F)(F)F)cc3)n2)cc1", "study_system": "A549/ATCC NSCLC", "cat": "No"}
{"compound": "COc1cc(NS(C)(=O)=O)ccc1Nc1c2ccc([N+](=O)[O-])cc2nc2c(C)cccc12", "study_system": "A549/ATCC NSCLC", "cat": "Yes"}
{"compound": "Cc1ccc2c(c1)C(=O)C(c1c(-c3[nH]c(=O)c4ccc(C)cc4c3O)c(O)c3ccccc3c1O)=NC2=O", "study_system": "A549/ATCC NSCLC", "cat": "No"}
{"compound": "Cc1ccc(C2=NN(c3ccc(S(=O)(=O)NC(=O)NCc4ccccc4)cc3)C(c3ccc(N(C)C)cc3)C2)c(C)c1 (stereo not given)", "study_system": "A549/ATCC NSCLC", "cat": "No"}
{"compound": "CCCCOc1nc2c(C)cccc2cc1C1CNC(=O)c2ccccc2N1 (stereo not given)", "study_system": "A549/ATCC NSCLC", "cat": "No"}
{"compound": "Cc1ccnc2nc(C(=O)OCC(=O)Nc3ccc(-c4ccccc4)cc3)nn12", "study_system": "A549/ATCC NSCLC", "cat": "No"}
{"compound": "O=S(=O)(NCCCNc1cc(-c2cn(-c3ccccc3)nc2-c2cccc(O)c2)ccn1)c1ccc(Cl)cc1", "study_system": "A549/ATCC NSCLC", "cat": "No"}
{"compound": "COc1ccc(C(=O)/C=C/c2cc(C(=O)c3cc(OC)c(OC)c(OC)c3)ccc2OC)cc1", "study_system": "A549/ATCC NSCLC", "cat": "No"}
{"compound": "O=C(CNC(=O)c1cccc2ccccc12)Nc1ccccc1Oc1ccccc1", "study_system": "A549/ATCC NSCLC", "cat": "Yes"}
{"compound": "O=C1CCC(=O)N1Cc1ccccc1", "study_system": "A549/ATCC NSCLC", "cat": "No"}
{"compound": "O=c1[nH]c(CN2CCN(c3ccccc3F)CC2)nc2sc3c(c12)CCC3", "study_system": "A549/ATCC NSCLC", "cat": "No"}
{"compound": "Cc1cc(Nc2nc(-c3ccc(F)cc3)nc3ccccc23)n[nH]1", "study_system": "A549/ATCC NSCLC", "cat": "No"}
{"compound": "CCc1cccc(C)c1NC(=O)c1sc2nc3c(cc2c1N)C(=O)CCC3", "study_system": "A549/ATCC NSCLC", "cat": "No"}
{"compound": "COc1ccc(OC)c(/C=C2\\Oc3cc(OCCN4CCCC4)ccc3C2=O)c1", "study_system": "A549/ATCC NSCLC", "cat": "No"}
{"compound": "NCCSC(c1ccccc1)(c1ccccc1)c1ccccc1", "study_system": "A549/ATCC NSCLC", "cat": "No"}
{"compound": "CC/C=C\\C/C=C\\C[C@H](O)C/C=C1/C(=O)C=C[C@H]1C/C=C\\CCC(=O)OC", "study_system": "A549/ATCC NSCLC", "cat": "No"}
{"compound": "COC1=CC(c2ccc[nH]2)=N/C1=C\\c1[nH]c(C)c(CCCn2cc(CCCCCCCCC[C@@H]3Cc4cc(O)ccc4C4CC[C@]5(C)[C@@H](O)CC[C@H]5C43)nn2)c1C (stereo not given in full)", "study_system": "A549/ATCC NSCLC", "cat": "No"}
{"compound": "Nc1c(C(=O)Nc2cccc(C(F)(F)F)c2)sc2nc3c(cc12)C(O)CCC3 (stereo not given)", "study_system": "A549/ATCC NSCLC", "cat": "No"}
{"compound": "C=CCOc1cccc(/C=C/C(=O)c2sc(Nc3cccnc3)nc2C)c1", "study_system": "A549/ATCC NSCLC", "cat": "No"}

---

tested on: NCI/ADR-RES ovarian; experiment: NCI-60 one-dose screen, 48 h; settings: 10 µM unless noted
This is part of a sample that, as a whole, favours compounds with a hit. Of some 83,000 tested, about 20% had one in any assay. Active and inactive are the calls of the source. Rule for the calls: active = growth percent below 10; inactive = the rest.
Outcome codes: true (1) = active, false (0) = inactive

{"compound": "COC1=CC(c2ccc[nH]2)=N/C1=C\\c1[nH]c(C)c(C(=O)CCC(=O)Oc2ccc3c(c2)CCC2C3CC[C@]3(C)[C@@H](O)CC[C@@H]23)c1C (some centres undefined)", "cat": "true (1)"}
{"compound": "O=S=Nc1ccc([N+](=O)[O-])cc1", "cat": "false (0)"}
{"compound": "CC/C=C\\C[C@H](O)C/C=C1/C(=O)C(Cl)=C[C@@H]1C/C=C\\CCCC(=O)OC", "cat": "false (0)"}
{"compound": "O=C(C[N+](=O)[O-])c1ccc(Cl)cc1", "cat": "false (0)"}
{"compound": "COc1ccc(OC)c(/C=C2\\Oc3cc(OCCN4CCCC4)ccc3C2=O)c1", "cat": "false (0)"}
{"compound": "COc1ccc(Cn2cc(COc3cc(/C=C/C(=O)c4cc(OC)c(OC)c(OC)c4)ccc3OC)nn2)cc1", "cat": "false (0)"}
{"compound": "Nc1c(C(=O)Nc2ccccc2)sc2nc3c(cc12)CCCCC3", "cat": "true (1)"}
{"compound": "CCCCCCCCCCC/C=C\\C[C@H](O)C/C=C1/C(=O)C=C[C@@H]1C/C=C\\CCCC(=O)OC", "cat": "true (1)"}
{"compound": "CCCCCCCCCCCCCCCCCCOc1cccc(CCOP(=O)(O)OCC[N+](C)(C)C)c1", "cat": "false (0)"}
